- measurement-target: mouse Mcl-1 with truncations of 151 amino acid residues at its N-terminus and 23 residues at its C-terminus (mouse) (UniProt P97287)
- Sequence (P97287 152-308): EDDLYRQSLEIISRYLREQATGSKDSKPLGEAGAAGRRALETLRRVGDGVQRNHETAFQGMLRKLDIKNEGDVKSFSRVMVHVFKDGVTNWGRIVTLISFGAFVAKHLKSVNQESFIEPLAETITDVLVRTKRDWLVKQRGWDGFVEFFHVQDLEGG
- protocol-text: competition phage ELISA
No end group written: not given here. FLAG = FLAG tag
Measured log10 IC50, listed per entry.
Parameter value (number): base-10 log of IC50 in nM.

- binder: "QEDIIRNIARHLAQVGDSMDRSAPPG [Bid BH3 I23A, phage-displayed]"
  log10 IC50: 2.15
- binder: "{FLAG}-RAELPPEFAAALRKIGDKVYCTWSAP-{GGGT-g3(249-406)} [mNoxaA BH3 Q11A, phage-displayed]"
  log10 IC50: 1.34
- binder: "{FLAG}-RAELPPEFAAQLRKIGDAVYCTWSAP-{GGGT-g3(249-406)} [mNoxaA BH3 K18A, phage-displayed]"
  log10 IC50: 1.04
- binder: "{FLAG}-RAELPAEFAAQLRKIGDKVYCTWSAP-{GGGT-g3(249-406)} [mNoxaA BH3 P6A, phage-displayed]"
  log10 IC50: 0.90

I am curious: what log10 IC50 value has been reported for PSSTMGQVGRQLAIIGDDINRRYASE [Bak BH3 D24A, phage-displayed] ?
0.95

I am curious: what log10 IC50 value has been reported for QEDIIRNIARHLAQVGDSMARSIPPG [Bid BH3 D20A, phage-displayed] ?
1.92

I am curious: what log10 IC50 value has been reported for RAELPPEFAAQLRKIGDKVYCTASAP-{GGGT-g3(249-406)} (not fully specified (N-terminus)) [mNoxaA BH3 W23A, phage-displayed] ?
1.84

I am curious: what log10 IC50 value has been reported for PSSTMGQAGRQLAIIGDDINRRYDSE [Bak BH3 V8A, phage-displayed] ?
1.90

I am curious: what log10 IC50 value has been reported for PSSTMGQVGRQLAIIGDDINARYDSE [Bak BH3 R21A, phage-displayed] ?
1.23

I am curious: what log10 IC50 value has been reported for QEDIIRNIARHLAQVGDSMDRSIAPG [Bid BH3 P24A, phage-displayed] ?
1.95

I am curious: what log10 IC50 value has been reported for PSSTAGQVGRQLAIIGDDINRRYDSE [Bak BH3 M5A, phage-displayed] ?
1.26

I am curious: what log10 IC50 value has been reported for {FLAG}-RAELPPEFAAQLRAIGDKVYCTWSAP-{GGGT-g3(249-406)} [mNoxaA BH3 K14A, phage-displayed] ?
1.57

meta.source: patent US20090048164A1
